B1: glmS ribozyme (parent)
chain: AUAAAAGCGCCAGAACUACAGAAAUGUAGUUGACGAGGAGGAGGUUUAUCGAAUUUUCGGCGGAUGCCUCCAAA

variants of: B1; assay: self-cleavage kobs at 10000 uM GlcN6P; higher = faster cleavage; RNA array; details: with glucosamine-6-phosphate
Variants at the floor of the assay were thinned out.
Listing of entries alongside the reported self-cleavage kobs at 10000 uM GlcN6P.
Property: self-cleavage kobs at 10000 uM GlcN6P (s⁻¹)

# Construct Sequence, Limit Qualifier, Reported Measurement
records = [
    ("AUAAAAGCGCCAGAACUACAGAAAUGUAGUUGAGGAGGAGGAGGUUUAUCGAAUUUUCGGCGGACGCCUCCAAA [C34G U65C]", "<", "1e-05"),
    ("AUAAAAGCGCCAGAACUACAGAAAUGUAGUUGACGAGGAGGAGGUGUAUCGAAUUUUCGGCGGAUGCCUUCAAA [U46G C70U]", "=", 0.00705),
    ("AUAAAAGCGCCAGAACUACAGAAAUGUAGUUUACGAGGAGGAGGUUUAUCGAAUUUUCGGCGGAUGCCUCGAAA [G32U C71G]", "=", 0.000102),
    ("AUAAAGGCGACAAAACUACAGAAAUGUAGUUGACGAGGAGGAGGUUUAUCGAAUUUUCGGCAGAAGCCUCCAAA [A6G C10A G13A G62A U65A]", "<", "1e-05"),
    ("AUAAACGCACCAGAACUACAGAAAUGUAGUUGAAGAGGACGAAGUUUAUUGAAAUUUGGGCGGAUGCUUCCAAA [A6C G9A C34A G40C G43A C50U U54A C58G C68U]", "<", "1e-05"),
]
